Data credit: patent US20150045540A1

- Target Desc: Hepatocyte Growth Factor (HGF), human (human, UniProt P14210 32-728)
- Sequence (P14210 32-728): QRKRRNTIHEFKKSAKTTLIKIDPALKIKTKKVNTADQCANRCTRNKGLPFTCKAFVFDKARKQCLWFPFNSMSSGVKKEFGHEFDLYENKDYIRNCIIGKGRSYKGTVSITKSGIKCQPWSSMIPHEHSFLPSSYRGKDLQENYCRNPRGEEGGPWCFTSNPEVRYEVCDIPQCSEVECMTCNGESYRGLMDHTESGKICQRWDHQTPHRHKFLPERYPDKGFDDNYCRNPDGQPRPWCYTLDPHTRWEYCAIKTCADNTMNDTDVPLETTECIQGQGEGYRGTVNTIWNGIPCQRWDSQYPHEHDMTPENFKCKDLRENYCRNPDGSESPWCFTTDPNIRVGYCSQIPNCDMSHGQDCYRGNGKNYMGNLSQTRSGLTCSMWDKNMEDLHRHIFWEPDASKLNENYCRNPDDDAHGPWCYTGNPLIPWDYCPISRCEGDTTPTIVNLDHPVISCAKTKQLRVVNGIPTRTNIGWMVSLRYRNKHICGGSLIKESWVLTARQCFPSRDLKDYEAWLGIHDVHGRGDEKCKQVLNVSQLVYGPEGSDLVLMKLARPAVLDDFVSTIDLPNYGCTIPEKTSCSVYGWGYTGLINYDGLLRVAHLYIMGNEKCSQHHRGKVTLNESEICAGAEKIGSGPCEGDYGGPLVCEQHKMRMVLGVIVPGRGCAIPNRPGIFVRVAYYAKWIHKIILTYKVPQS
- Assay Explanation: ELISA
pEC50: −log10 of the molar value.

Binder	pEC50
HC 4/SLC 6 (antibody) chain 1: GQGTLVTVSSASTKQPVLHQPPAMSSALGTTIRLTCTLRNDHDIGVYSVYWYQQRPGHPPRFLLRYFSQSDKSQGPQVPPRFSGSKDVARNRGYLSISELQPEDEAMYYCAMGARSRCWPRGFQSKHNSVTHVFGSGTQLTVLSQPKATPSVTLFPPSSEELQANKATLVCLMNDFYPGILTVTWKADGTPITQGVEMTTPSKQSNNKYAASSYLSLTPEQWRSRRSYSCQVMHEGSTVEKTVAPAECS chain 2: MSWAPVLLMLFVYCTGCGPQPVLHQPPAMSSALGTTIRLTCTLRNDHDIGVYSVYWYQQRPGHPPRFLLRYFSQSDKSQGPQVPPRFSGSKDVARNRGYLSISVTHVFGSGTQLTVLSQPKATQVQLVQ	10.20
